Source of measurements: a melting point compilation (Tetko et al.; mined from patent text by program, amines drawn as free bases though some values may be those of a salt)

Can you tell me melting point for the items I'm about to list?
Just the number please, in °C, no unit attached.

Briefly, melting point measured for CC1(C(=O)CC(=O)c2ccc(S(C)(=O)=O)c(Cl)c2Cl)CC1 : 143

Query CCCN(CCCCc1c[nH]c2ccc(F)cc12)C1COc2c(F)ccc(C(=O)NC)c2C1 (stereo unspecified) yields melting point of 110

melting point in this record for Cc1ccc(C(=O)O)c2c1CCCO2 : 140

* * *

Task for the reader: assign each of the following compounds its reported melting point.

The compound N/C(=C1/Sc2ccccc2C1=O)c1ccccc1C(F)(F)F showed melting point equal to 148 to 149 °C

Consider O=C(NC1CCN(CCc2ccc(F)cc2)C1)C12CC3CC(CC(C3)C1)C2 (stereo not given) . Its measured melting point is 114 to 116 °C

compound Nc1ncc(Cl)c(CCl)c1Cl , melting point observed: 124 to 126 °C

Entry O=C(c1ccccc1[N+](=O)[O-])N1CCCc2ccccc21 ; melting point = 155 °C

melting point measured on COc1ccccc1-c1ccc(-c2ccc(C(=O)O)cc2)cc1-c1ccc2c(c1)C(C)(C)CCC2(C)C = 133 to 136 °C

The compound listed as CC(=O)OC1CC(=O)N([Si](C)(C)C)C1 (stereo not given) has a reported melting point of 148 to 150 °C

Per the records, this compound ( CCC(C(=O)Nc1ccc2cc[nH]c2c1)c1ccccc1 (stereo not given) ) has melting point equal to 143 to 144 °C

Field melting point (entry CCS(=O)(=O)n1cc(C(=O)C2CSC(c3cccnc3)N2)c2ccc(OCc3ccccc3)cc21 (stereo not given) ) reads 76 to 82 °C

The recorded melting point for CNC(=O)N1CC(Oc2ccccn2)C1 is 165 to 168 °C

Form: compound = Cc1cccc(C(=O)Nc2ccc(C(=O)N3Cc4cccn4Cc4ccccc43)cc2)c1C ; melting point = 168 to 170 °C
